# System: PANC-1 (Pancreatic) cells
# experimental-details: Inhibition of PANC-1 cells by compounds
# Format: cell-based
# details: PY-X (DXD) set to 1
Binary call on IC50 in PANC-1 cells, ratio to DXD with cut-off 0.2: strictly below means 1, and equality or higher means 0.

{"columns": ["compound", "category-label"],
 "data": [
  ["CC[C@@]1(O)C(=O)OCc2c1cc1n(c2=O)Cc2c-1nc1cc(F)c(O)c3c1c2CCC3 [PY-13]", 1],
  ["CC[C@@]1(O)C(=O)OCc2c1cc1n(c2=O)Cc2c-1nc1cc(Cl)c(CN)c3c1c2CCC3 [PY-36]", 0],
  ["CC[C@@]1(O)C(=O)OCc2c1cc1n(c2=O)Cc2c-1nc1cc(F)c(C)c3c1c2[C@@H](NC(=O)OCCCCO)CC3 [PY-4Car2]", 0],
  ["CC[C@@]1(O)C(=O)OCc2c1cc1n(c2=O)Cc2c-1nc1cc(F)c(C)c3c1c2[C@@H](NC(=O)OCCO)CC3 [PY-4Car]", 0],
  ["CC[C@@]1(O)C(=O)OCc2c1cc1n(c2=O)Cc2c-1nc1cc(Cl)c(CO)c3c1c2CCC3 [PY-37]", 0],
  ["CC[C@@]1(O)C(=O)OCc2c1cc1n(c2=O)Cc2c-1nc1cc(F)c(CN)c3c1c2CCC3 [PY-16]", 1],
  ["CC[C@@]1(O)C(=O)OCc2c1cc1n(c2=O)Cc2c-1nc1cc(F)c(CO)c3c1c2CCC3 [PY-10]", 1]
]}

----------
# experimental-details: Log D of small molecules (1-octanol / phosphate buffer pH 2.5 and pH 7.4, LC-MS/MS)
# Format: physicochemical
# details: 1-octanol / phosphate buffer pH 7.4; read-out: Log D7.4 (Oct/buff) Result

{"columns": ["smiles-representation", "logD"],
 "data": [
  ["CC[C@@]1(O)C(=O)OCc2c1cc1n(c2=O)Cc2c-1nc1cc(F)c(C)c3c1c2[C@@H](NC(=O)OCCCCO)CC3", 2.43]
]}

----------
# experimental-details: Log D of small molecules (1-octanol / phosphate buffer pH 2.5 and pH 7.4, LC-MS/MS)
# Format: physicochemical
# details: pH 2.5
experimental-readout: logD

{"columns": ["compound", "observed-value"],
 "data": [
  ["CC[C@@]1(O)C(=O)OCc2c1cc1n(c2=O)Cc2c-1nc1cc(F)c(C)c3c1c2[C@@H](NC(=O)OCCO)CC3 [PY-4Car]", 2.1],
  ["CC[C@@]1(O)C(=O)OCc2c1cc1n(c2=O)Cc2c-1nc1cc(F)c(C)c3c1c2[C@@H](NC(=O)OCCCO)CC3 [PY-4Car3C]", 2.2]
]}

----------
# Tested on: SW1573 (NSCLC) cells
# experimental-details: Inhibition of SW1573 cells by compounds
# Type: cell-based
# details: PY-X (DXD) set to 1
Binary call on IC50 in SW1573 cells, ratio to DXD with cut-off 0.5: strictly below means criterion met, and equality or higher means criterion not met.

{"columns": ["molecule", "category-label"],
 "data": [
  ["CC[C@@]1(O)C(=O)OCc2c1cc1n(c2=O)Cc2c-1nc1cc(F)c(C)c3c1c2[C@@H](NC(=O)OCCO)CC3 [PY-4Car]", "criterion met"],
  ["CC[C@@]1(O)C(=O)OCc2c1cc1n(c2=O)Cc2c-1nc1cc(F)c(CO)c3c1c2CCC3 [PY-10]", "criterion met"],
  ["CC[C@@]1(O)C(=O)OCc2c1cc1n(c2=O)Cc2c-1nc1ccc(CO)c3c1c2CCC3 [PY-37A]", "criterion met"],
  ["CC[C@@]1(O)C(=O)OCc2c1cc1n(c2=O)Cc2c-1nc1cc(Cl)c(CO)c3c1c2CCC3 [PY-37]", "criterion not met"],
  ["CC[C@@]1(O)C(=O)OCc2c1cc1n(c2=O)Cc2c-1nc1cc(Cl)c(CN)c3c1c2CCC3 [PY-36]", "criterion not met"],
  ["CC[C@@]1(O)C(=O)OCc2c1cc1n(c2=O)Cc2c-1nc1cc(F)c(C)c3c1c2[C@@H](NC(=O)OCCCCO)CC3 [PY-4Car2]", "criterion met"],
  ["CC[C@@]1(O)C(=O)OCc2c1cc1n(c2=O)Cc2c-1nc1cc(F)c(O)c3c1c2CCC3 [PY-13]", "criterion met"],
  ["CC[C@@]1(O)C(=O)OCc2c1cc1n(c2=O)Cc2c-1nc1cc(F)c(CN)c3c1c2CCC3 [PY-16]", "criterion met"]
]}
